system under test: CYP2B6 (Homo sapiens)
Sequence (P20813 whole entry): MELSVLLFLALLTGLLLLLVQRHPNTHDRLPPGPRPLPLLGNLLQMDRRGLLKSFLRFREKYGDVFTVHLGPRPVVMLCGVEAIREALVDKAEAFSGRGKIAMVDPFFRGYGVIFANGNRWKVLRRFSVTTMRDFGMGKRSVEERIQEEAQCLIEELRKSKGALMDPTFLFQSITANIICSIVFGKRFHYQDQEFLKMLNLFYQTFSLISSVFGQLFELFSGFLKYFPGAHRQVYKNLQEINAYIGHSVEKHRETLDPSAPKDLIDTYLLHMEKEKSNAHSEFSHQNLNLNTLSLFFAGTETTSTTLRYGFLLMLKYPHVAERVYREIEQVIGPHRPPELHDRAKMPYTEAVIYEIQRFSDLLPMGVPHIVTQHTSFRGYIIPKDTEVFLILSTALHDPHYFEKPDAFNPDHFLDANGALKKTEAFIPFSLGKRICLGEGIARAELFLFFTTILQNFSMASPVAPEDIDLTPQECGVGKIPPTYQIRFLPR
test details: In vitro CYP inhibition (direct and time-dependent), CYP2B6
cond: CYP2B6
quantity: pIC50
pIC50 is defined as minus the log10 of a concentration measured in mol/L.

What does the record list as pIC50 for Cc1ccc(C2=CC(C)(C)Oc3ccc(-c4ccc(-c5ccc(C(=O)O)cc5)[nH]4)cc32)cc1 ?
5.21

====

System: male NHPs (cynomolgus monkeys)
test details: NHP exploratory 14-day non-GLP repeat-dose study
Assay type: in vivo, cynomolgus monkey
cond: of NHP repeat-dose NOAEL
quantity: HED for 80 kg BW

What does the record list as HED for 80 kg BW for Cc1ccc(C2=CC(C)(C)Oc3ccc(-c4ccc(-c5ccc(C(=O)O)cc5)[nH]4)cc32)cc1 [Compound A] ?
256 mg

====

test details: NHP exploratory 14-day non-GLP repeat-dose study
Assay type: in vivo, cynomolgus monkey
cond: male, cynomolgus monkey, in vivo; NHP 14-day non-GLP, NOAEL 10 mg/kg/day; read-out: HED of NOAEL
quantity: Human equivalent dose of NOAEL at 14 days
Please append the unit to your numeric answer.

What does the record list as Human equivalent dose of NOAEL at 14 days for Cc1ccc(C2=CC(C)(C)Oc3ccc(-c4ccc(-c5ccc(C(=O)O)cc5)[nH]4)cc32)cc1 [Compound A] ?
3.2 mg/kg/day

====

test details: Phase 1b MAD study (Part 1), 28-day dosing, PK
Type: in vivo, human
cond: male, human, in vivo, oral, 90 mg, 90 mg once daily, Day 1; mean; read-out: AUC0-last
quantity: AUC(0-t) (ng·h/mL)
Write the value in ng·h/mL as a bare number.

What does the record list as AUC(0-t) for Cc1ccc(C2=CC(C)(C)Oc3ccc(-c4ccc(-c5ccc(C(=O)O)cc5)[nH]4)cc32)cc1 ?
14100

====

test details: Phase 1b MAD study (Part 1), 28-day dosing, PK
Format: in vivo, human
cond: male, human, in vivo, oral, 30 mg, 30 mg once daily, Day 1; mean; read-out: Cmax
quantity: Cmax (ng/mL)
Write the value in ng/mL as a bare number.

What does the record list as Cmax for Cc1ccc(C2=CC(C)(C)Oc3ccc(-c4ccc(-c5ccc(C(=O)O)cc5)[nH]4)cc32)cc1 [Compound A] ?
544

====

test details: Dog 28-day repeat-dose GLP toxicity study
Assay type: in vivo
cond: male, Beagle, in vivo; dog 28-day GLP, NOAEL 5 mg/kg/day; read-out: HED of NOAEL
quantity: Human equivalent dose of NOAEL at 28 days (mg/kg/day)
Write the value in mg/kg/day as a bare number.

What does the record list as Human equivalent dose of NOAEL at 28 days for Cc1ccc(C2=CC(C)(C)Oc3ccc(-c4ccc(-c5ccc(C(=O)O)cc5)[nH]4)cc32)cc1 ?
2.8

====

test details: Phase 1b MAD study (Part 1), 28-day dosing, PK
Format: in vivo, human
cond: male, human, in vivo, oral, 15 mg, 15 mg once daily, Day 1; mean; read-out: Cmax
quantity: Cmax (ng/mL)
Write the value in ng/mL as a bare number.

What does the record list as Cmax for Cc1ccc(C2=CC(C)(C)Oc3ccc(-c4ccc(-c5ccc(C(=O)O)cc5)[nH]4)cc32)cc1 ?
275

====

test details: Phase 1a single ascending oral dose study, PK
cond: male, human, in vivo; single oral dose 10 mg, fasted; geometric mean
quantity: Cmax (ng/mL)
Write the value in ng/mL as a bare number.

What does the record list as Cmax for Cc1ccc(C2=CC(C)(C)Oc3ccc(-c4ccc(-c5ccc(C(=O)O)cc5)[nH]4)cc32)cc1 ?
131

====

test details: Phase 1b MAD study (Part 1), 28-day dosing, PK
Type: in vivo, human
cond: male, human, in vivo, oral, 90 mg, 90 mg once daily, Day 1; mean; read-out: AUC0-24
quantity: AUC(0-t)
Please append the unit to your numeric answer.

What does the record list as AUC(0-t) for Cc1ccc(C2=CC(C)(C)Oc3ccc(-c4ccc(-c5ccc(C(=O)O)cc5)[nH]4)cc32)cc1 ?
14100 ng·h/mL

====

test details: Dog GLP 28-day repeat-dose study, PK at the NOAEL
cond: male, Beagle, in vivo, 5 mg/kg, AUC0-24, dog, 5 mg/kg (NOAEL), Day 1, mean
quantity: AUC(0-t)

What does the record list as AUC(0-t) for Cc1ccc(C2=CC(C)(C)Oc3ccc(-c4ccc(-c5ccc(C(=O)O)cc5)[nH]4)cc32)cc1 ?
43800 ng·h/mL

====

test details: Dog GLP 28-day repeat-dose study, PK at the NOAEL
cond: male, Beagle, in vivo, 5 mg/kg, T1/2, dog, 5 mg/kg (NOAEL), Day 1, median
quantity: half-life (h)
Write the value in h as a bare number.

What does the record list as half-life for Cc1ccc(C2=CC(C)(C)Oc3ccc(-c4ccc(-c5ccc(C(=O)O)cc5)[nH]4)cc32)cc1 ?
13.9

====

test details: Phase 1a single ascending oral dose study, PK
cond: male, human, in vivo; single oral dose 180 mg, fasted; geometric mean
quantity: AUC(0-inf) (ng·h/mL)
Write the value in ng·h/mL as a bare number.

What does the record list as AUC(0-inf) for Cc1ccc(C2=CC(C)(C)Oc3ccc(-c4ccc(-c5ccc(C(=O)O)cc5)[nH]4)cc32)cc1 ?
75400

====

test details: Phase 1b MAD study (Part 1), 28-day dosing, PK
Assay type: in vivo, human
cond: male, human, in vivo, oral, 90 mg, 90 mg once daily, Day 1; median
quantity: Tmax
Please append the unit to your numeric answer.

What does the record list as Tmax for Cc1ccc(C2=CC(C)(C)Oc3ccc(-c4ccc(-c5ccc(C(=O)O)cc5)[nH]4)cc32)cc1 ?
6 h

====

system under test: CYP2C8 (Homo sapiens)
Sequence (P10632 whole entry): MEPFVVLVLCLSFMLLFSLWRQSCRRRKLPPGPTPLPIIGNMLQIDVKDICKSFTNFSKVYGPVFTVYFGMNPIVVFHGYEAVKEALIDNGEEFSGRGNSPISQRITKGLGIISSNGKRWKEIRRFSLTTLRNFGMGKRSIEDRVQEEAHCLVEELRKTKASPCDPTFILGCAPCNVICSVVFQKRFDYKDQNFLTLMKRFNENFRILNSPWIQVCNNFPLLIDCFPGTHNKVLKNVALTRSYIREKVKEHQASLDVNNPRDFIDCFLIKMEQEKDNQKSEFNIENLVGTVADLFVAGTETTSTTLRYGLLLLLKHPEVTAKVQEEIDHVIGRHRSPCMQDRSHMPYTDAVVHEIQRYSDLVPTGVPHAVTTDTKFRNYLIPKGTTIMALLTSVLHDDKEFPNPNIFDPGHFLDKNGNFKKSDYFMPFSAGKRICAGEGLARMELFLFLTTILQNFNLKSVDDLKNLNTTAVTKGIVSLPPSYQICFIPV
test details: In vitro CYP inhibition (direct and time-dependent), CYP2C8
cond: CYP2C8
quantity: pIC50
pIC50 is defined as minus the log10 of a concentration measured in mol/L.

What does the record list as pIC50 for Cc1ccc(C2=CC(C)(C)Oc3ccc(-c4ccc(-c5ccc(C(=O)O)cc5)[nH]4)cc32)cc1 ?
5.08

====

test details: Phase 1a single ascending oral dose study, PK
cond: male, human, in vivo, po, 10 mg, single oral dose 10 mg, fasted; geometric mean; read-out: AUC0-24
quantity: AUC(0-t) (ng·h/mL)
Write the value in ng·h/mL as a bare number.

What does the record list as AUC(0-t) for Cc1ccc(C2=CC(C)(C)Oc3ccc(-c4ccc(-c5ccc(C(=O)O)cc5)[nH]4)cc32)cc1 ?
2380

====

test details: Phase 1a single ascending oral dose study, PK
cond: male, human, in vivo, po, 30 mg, single oral dose 30 mg, fasted; geometric mean; read-out: AUC0-last
quantity: AUC(0-t) (ng·h/mL)
Write the value in ng·h/mL as a bare number.

What does the record list as AUC(0-t) for Cc1ccc(C2=CC(C)(C)Oc3ccc(-c4ccc(-c5ccc(C(=O)O)cc5)[nH]4)cc32)cc1 [Compound A] ?
12400

====

test details: Rat single dose GLP study (toxicity, sperm parameters)
Assay type: in vivo
cond: male, in vivo; rat, single dose; highest dose tested
quantity: NOAEL at 15 days (mg/kg)
Write the value in mg/kg as a bare number.

What does the record list as NOAEL at 15 days for Cc1ccc(C2=CC(C)(C)Oc3ccc(-c4ccc(-c5ccc(C(=O)O)cc5)[nH]4)cc32)cc1 ?
1000

====

test details: Dog GLP 28-day repeat-dose study, PK at the NOAEL
cond: male, Beagle, in vivo, 5 mg/kg, Cmax, 5 mg/kg (NOAEL), Day 28, mean
quantity: Cmax (ng/mL)
Write the value in ng/mL as a bare number.

What does the record list as Cmax for Cc1ccc(C2=CC(C)(C)Oc3ccc(-c4ccc(-c5ccc(C(=O)O)cc5)[nH]4)cc32)cc1 ?
4800

====

system under test: CYP2D6 (Homo sapiens, UniProt P10635)
Sequence (P10635 whole entry): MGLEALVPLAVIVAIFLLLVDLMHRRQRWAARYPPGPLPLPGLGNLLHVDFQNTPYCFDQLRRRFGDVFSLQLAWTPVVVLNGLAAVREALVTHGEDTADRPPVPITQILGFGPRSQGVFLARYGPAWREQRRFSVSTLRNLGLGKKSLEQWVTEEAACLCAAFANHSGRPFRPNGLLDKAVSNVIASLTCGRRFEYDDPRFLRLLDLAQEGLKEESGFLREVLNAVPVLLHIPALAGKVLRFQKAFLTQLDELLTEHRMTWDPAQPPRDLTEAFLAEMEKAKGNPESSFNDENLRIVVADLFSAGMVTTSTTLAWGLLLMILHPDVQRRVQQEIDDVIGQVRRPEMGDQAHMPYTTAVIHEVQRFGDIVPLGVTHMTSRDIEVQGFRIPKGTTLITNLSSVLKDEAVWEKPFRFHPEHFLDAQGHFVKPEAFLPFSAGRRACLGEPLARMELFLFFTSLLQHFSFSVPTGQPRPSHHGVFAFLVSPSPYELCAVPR
test details: In vitro CYP inhibition (direct and time-dependent), CYP2D6
cond: CYP2D6
quantity: IC50

What does the record list as IC50 for Cc1ccc(C2=CC(C)(C)Oc3ccc(-c4ccc(-c5ccc(C(=O)O)cc5)[nH]4)cc32)cc1 ?
> 100 µM

====

test details: Phase 1b MAD study (Part 1), 28-day dosing, PK;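 also: PK profiles sampled across 24 h on Day 1 and Day 28 while participants stayed overnight in the clinical research unit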
Assay type: in vivo, human
cond: male, human, in vivo, oral, 90 mg, 90 mg once daily, Day 28; mean; read-out: AUC0-24
quantity: AUC(0-t) (ng·h/mL)
Write the value in ng·h/mL as a bare number.

What does the record list as AUC(0-t) for Cc1ccc(C2=CC(C)(C)Oc3ccc(-c4ccc(-c5ccc(C(=O)O)cc5)[nH]4)cc32)cc1 [Compound A] ?
22700

====

test details: Phase 1a single ascending oral dose study, PK
cond: male, human, in vivo, po, 90 mg, single oral dose 90 mg, fasted; geometric mean; read-out: AUC0-last
quantity: AUC(0-t) (µg·h/mL)
Write the value in µg·h/mL as a bare number.

What does the record list as AUC(0-t) for Cc1ccc(C2=CC(C)(C)Oc3ccc(-c4ccc(-c5ccc(C(=O)O)cc5)[nH]4)cc32)cc1 ?
26.3
